Molecular target: HLA-A*31:01
Test: IEDB peptide-MHC binding, purified MHC/competitive/radioactivity; filed as Kd, often an IC50 or EC50 that approximates it; bounds were set here for any values at or beyond the usual limits of such assays
Settings: source organism: Vaccinia virus WR
pKd: −log10 of the molar value.
Reported pKd values for the following sequences.

{"SEQUENCE TEXT": "PLFHGGEPIK", "RESULT VALUE": "≤ 4.15"}

// query So what's the measured pKd for this one? DVHPGEPVVK
// result ≤ 4.49

// query Then what about the sequence NLTETFRDY ?
// result ≤ 4.11

// query Then this sequence: LSFSNTIQSY
// result ≤ 4.15

// query Check ITKEIKNRDK too.
// result ≤ 5.00

// query Can you handle YTCEDNTGIK next?
// result ≤ 4.15

// query Now try DVRDKRRKY .
// result ≤ 4.11

---

Target: HLA-A*02:01
Assay: IEDB peptide-MHC binding, purified MHC/direct/fluorescence; filed as Kd, often an IC50 or EC50 that approximates it; bounds were set here for any values at or beyond the usual limits of such assays
Conditions: source organism: Mycobacterium tuberculosis
pKd: −log10 of the molar value.
// values below are reported pKd

Sample records with pKd:
{"SEQUENCE TEXT": "GPAGYTAAL", "pKd": "≤ 4.70"}
{"SEQUENCE TEXT": "AVFLSYIGY", "pKd": "≤ 4.70"}

// query Look up pKd for this sequence: LLYEVDGDV
// result ≤ 4.70

---

Molecular target: HLA-A*31:01
Assay: IEDB peptide-MHC binding, purified MHC/competitive/radioactivity; filed as Kd, often an IC50 or EC50 that approximates it; bounds were set here for any values at or beyond the usual limits of such assays
Settings: source organism: Vaccinia virus WR
MEASURE NAME: Kd (µM)
Express your answer in µM, writing the number without its unit.

{"SEQUENCE TEXT": "ELGIAIFNNR", "Kd, µM": 0.0599}

// query Consider the sequence shown here: KVLAARLKR What is its recorded Kd?
// result 0.663

// query One more sequence: VSAQNISFK
// result 1.57

// query Now give it for AQQFANVISK too.
// result 1.94

---

Target: HLA-A*23:01
Assay: IEDB peptide-MHC binding, purified MHC/competitive/radioactivity; filed as Kd, often an IC50 or EC50 that approximates it; bounds were set here for any values at or beyond the usual limits of such assays
Conditions: source organism: SARS coronavirus Tor2
List of Kd values.

{"SEQUENCE TEXT": "STSQKSIVAY", "Kd": "≥ 70 µM"}

// switching to the query sequence
// query I'd like to know its Kd. The sequence in question is ASEFSSLPSY
// result ≥ 70 µM

---

Target: HLA-A*30:01
Assay: IEDB peptide-MHC binding, purified MHC/competitive/radioactivity; filed as Kd, often an IC50 or EC50 that approximates it; bounds were set here for any values at or beyond the usual limits of such assays
Conditions: source organism: Vaccinia virus WR
pKd: −log10 of the molar value.
Classify as follows. Reported pKd greater than or equal to 8: met. Reported pKd below: not met.

Solved cases (3 shown):
{"SEQUENCE TEXT": "RIRQGKFIK", "CATEGORY": "met"}
{"SEQUENCE TEXT": "HAVYSIVFV", "CATEGORY": "not met"}
{"SEQUENCE TEXT": "RFRNHMCLV", "CATEGORY": "not met"}

// query I'd appreciate it if you could say whether RYRCSFAVA has pKd at least equal to 8.
// result met

// query Next sequence up: MTSLSAVSV
// result not met

// query How about MTIREFPRK ?
// result met

// query Okay, and RTHTALIFL ?
// result met

// query # iterate: HVYDFEPYY
// result not met

All values here come from the Immune Epitope Database (IEDB).
